test system: HNSC; test: growth inhibition (% activity, log2 RLU normalised to DMSO / staurosporine); higher = more growth inhibition; conditions: 33 µM

[
  {
    "Substance smiles": "Nc1nc2[nH]cc(CCc3ccc(C(=O)N[C@@H](CCC(=O)O)C(=O)O)cc3)c2c(=O)[nH]1",
    "System tested": "HNSC",
    "growth inhibition / %": -0.517
  },
  {
    "Substance smiles": "CN(c1nccc(=O)[nH]1)C1CCN(c2nc3ccccc3n2Cc2ccc(F)cc2)CC1",
    "System tested": "HNSC",
    "growth inhibition / %": 1.95
  },
  {
    "Substance smiles": "C[C@]12CCC(=O)C=C1[C@@H]1C[C@@H]1[C@H]1[C@@H]3[C@@H]4C[C@@H]4[C@@]4(CCC(=O)O4)[C@@]3(C)CC[C@@H]12",
    "System tested": "HNSC",
    "growth inhibition / %": 0.782
  }
]

###

Recorded growth inhibition values for a group of molecules are listed next.
test system: DIPGX7 (H3.3 K27M diffuse intrinsic pontine glioma line); experiment: growth inhibition (% activity, log2 RLU normalised to DMSO / staurosporine); higher = more growth inhibition; settings: 33 µM

[
  {
    "Molecule": "COc1cc2nc(N3CCN(C(=O)c4ccco4)CC3)nc(N)c2cc1OC",
    "System tested": "DIPGX7",
    "growth inhibition / %": 1.17
  },
  {
    "Molecule": "CC(=O)O[C@]1(C(C)=O)CC[C@H]2[C@@H]3C=C(C)C4=CC(=O)CC[C@]4(C)[C@H]3CC[C@@]21C",
    "System tested": "DIPGX7",
    "growth inhibition / %": 2.71
  },
  {
    "Molecule": "CCCCN1CCCCC1C(=O)Nc1c(C)cccc1C (centres undefined)",
    "System tested": "DIPGX7",
    "growth inhibition / %": -1.58
  },
  {
    "Molecule": "O=c1cc[nH]c(=O)[nH]1",
    "System tested": "DIPGX7",
    "growth inhibition / %": 0.41
  },
  {
    "Molecule": "CNC(=C[N+](=O)[O-])NCCSCc1csc(CN(C)C)n1",
    "System tested": "DIPGX7",
    "growth inhibition / %": -0.581
  },
  {
    "Molecule": "CS(=O)(=O)c1ccc(C(=O)Nc2ccc(Cl)c(-c3ccccn3)c2)c(Cl)c1",
    "System tested": "DIPGX7",
    "growth inhibition / %": 3.42
  },
  {
    "Molecule": "C[C@@H]1CCN(C(=O)CC#N)C[C@@H]1N(C)c1ncnc2[nH]ccc12",
    "System tested": "DIPGX7",
    "growth inhibition / %": 0.986
  },
  {
    "Molecule": "Nc1cccc2c1CN(C1CCC(=O)NC1=O)C2=O (centres undefined)",
    "System tested": "DIPGX7",
    "growth inhibition / %": 4.3
  },
  {
    "Molecule": "C[C@@H]1CC(=O)NN=C1c1ccc(NN=C(C#N)C#N)cc1",
    "System tested": "DIPGX7",
    "growth inhibition / %": 1.39
  },
  {
    "Molecule": "Cn1nnc2c(C(N)=O)ncn2c1=O",
    "System tested": "DIPGX7",
    "growth inhibition / %": -1.33
  },
  {
    "Molecule": "Cc1ccc(-c2cc(C(F)(F)F)nn2-c2ccc(S(N)(=O)=O)cc2)cc1",
    "System tested": "DIPGX7",
    "growth inhibition / %": -0.904
  },
  {
    "Molecule": "COCCOC(=O)C1=C(C)NC(C)=C(C(=O)OC/C=C/c2ccccc2)C1c1cccc([N+](=O)[O-])c1 (centres undefined)",
    "System tested": "DIPGX7",
    "growth inhibition / %": 5.44
  },
  {
    "Molecule": "COCCCC/C(=N\\OCCN)c1ccc(C(F)(F)F)cc1",
    "System tested": "DIPGX7",
    "growth inhibition / %": 1.46
  },
  {
    "Molecule": "C=C[C@H]1CN2CC[C@H]1C[C@H]2[C@H](O)c1ccnc2ccc(OC)cc12",
    "System tested": "DIPGX7",
    "growth inhibition / %": 2.14
  },
  {
    "Molecule": "CCn1cc(C(=O)O)c(=O)c2cnc(N3CCCC3)nc21",
    "System tested": "DIPGX7",
    "growth inhibition / %": -0.632
  },
  {
    "Molecule": "CN1CCC(=C2c3ccccc3C=Cc3ccccc32)CC1",
    "System tested": "DIPGX7",
    "growth inhibition / %": -0.277
  },
  {
    "Molecule": "Cc1nc2n(c(=O)c1CCN1CCC(c3noc4cc(F)ccc34)CC1)CCCC2O (centres undefined)",
    "System tested": "DIPGX7",
    "growth inhibition / %": 0.542
  },
  {
    "Molecule": "O=C1CC[C@@H](C(=O)N2CSC[C@H]2C(=O)O)N1",
    "System tested": "DIPGX7",
    "growth inhibition / %": 1.62
  },
  {
    "Molecule": "CCCCc1nc(Cl)c(CO)n1Cc1ccc(-c2ccccc2-c2nnn[nH]2)cc1",
    "System tested": "DIPGX7",
    "growth inhibition / %": -0.599
  },
  {
    "Molecule": "Cc1cccc(Nc2ccccc2C(=O)O)c1C",
    "System tested": "DIPGX7",
    "growth inhibition / %": 3.05
  },
  {
    "Molecule": "CCn1nc(C(=O)O)c(=O)c2cc3c(cc21)OCO3",
    "System tested": "DIPGX7",
    "growth inhibition / %": -0.169
  },
  {
    "Molecule": "CC(=O)NS(=O)(=O)c1ccc(N)cc1",
    "System tested": "DIPGX7",
    "growth inhibition / %": 0.329
  },
  {
    "Molecule": "C=C1/C(=C\\C=C2/CCC[C@]3(C)[C@@H]([C@H](C)/C=C/[C@H](C)C(C)C)CC[C@@H]23)C[C@@H](O)C[C@@H]1O",
    "System tested": "DIPGX7",
    "growth inhibition / %": 5.3
  },
  {
    "Molecule": "C/C(O)=C(\\C#N)C(=O)Nc1ccc(C(F)(F)F)cc1",
    "System tested": "DIPGX7",
    "growth inhibition / %": 3.25
  },
  {
    "Molecule": "COC(=O)CCc1ccc(OCC(O)CNC(C)C)cc1 (centres undefined)",
    "System tested": "DIPGX7",
    "growth inhibition / %": 0.0919
  },
  {
    "Molecule": "O=C(O)CCc1nc(-c2ccccc2)c(-c2ccccc2)o1",
    "System tested": "DIPGX7",
    "growth inhibition / %": -1.35
  },
  {
    "Molecule": "N=C(N)c1ccc2cc(OC(=O)c3ccc(N=C(N)N)cc3)ccc2c1",
    "System tested": "DIPGX7",
    "growth inhibition / %": -0.0416
  },
  {
    "Molecule": "CN(Cc1cc(Br)cc(Br)c1N)C1CCCCC1",
    "System tested": "DIPGX7",
    "growth inhibition / %": 4.28
  },
  {
    "Molecule": "CCN(CC)CCOC(=O)C(c1ccccc1)c1ccccc1",
    "System tested": "DIPGX7",
    "growth inhibition / %": 3.35
  }
]

###

test system: SUDIPGVI (diffuse intrinsic pontine glioma line); assay: growth inhibition (% activity, log2 RLU normalised to DMSO / staurosporine); higher = more growth inhibition; conditions: 33 µM
Readout kind: growth inhibition (%)

[
  {
    "Molecule": "CC(C)C[C@H](NC(=O)[C@H](Cc1ccccc1)NC(=O)c1cnccn1)B(O)O",
    "Readout kind": "growth inhibition",
    "Quantity unit": "%",
    "Result number": 56.3
  },
  {
    "Molecule": "CCOC(=O)c1c(CSc2ccccc2)n(C)c2cc(Br)c(O)c(CN(C)C)c12",
    "Readout kind": "growth inhibition",
    "Quantity unit": "%",
    "Result number": -8.38
  },
  {
    "Molecule": "CC(C(=O)O)c1ccc2c(c1)[nH]c1ccc(Cl)cc12 (configuration not stated)",
    "Readout kind": "growth inhibition",
    "Quantity unit": "%",
    "Result number": -0.161
  },
  {
    "Molecule": "O=C(O)C1(C(=O)O)CCC1.[NH2-].[NH2-].[Pt+2]",
    "Readout kind": "growth inhibition",
    "Quantity unit": "%",
    "Result number": -3.41
  },
  {
    "Molecule": "O=c1[nH]c(=O)n(C2CCCO2)cc1F (configuration not stated)",
    "Readout kind": "growth inhibition",
    "Quantity unit": "%",
    "Result number": -0.356
  },
  {
    "Molecule": "Cc1cc(C#N)cc(C)c1Oc1nc(Nc2ccc(C#N)cc2)nc(N)c1Br",
    "Readout kind": "growth inhibition",
    "Quantity unit": "%",
    "Result number": 15.5
  },
  {
    "Molecule": "O=C1CC[C@@H](C(=O)N2CSC[C@H]2C(=O)O)N1",
    "Readout kind": "growth inhibition",
    "Quantity unit": "%",
    "Result number": 2.32
  },
  {
    "Molecule": "NCCNCCNCCNCCN",
    "Readout kind": "growth inhibition",
    "Quantity unit": "%",
    "Result number": 4.87
  },
  {
    "Molecule": "O=C(O)c1ccc(NC(=O)[C@H](Cc2ccc(O)cc2)NC(=O)c2ccccc2)cc1",
    "Readout kind": "growth inhibition",
    "Quantity unit": "%",
    "Result number": 0.761
  },
  {
    "Molecule": "C=C1c2c(Cl)ccc(O)c2C(=O)C2=C(O)[C@]3(O)C(=O)C(C(N)=O)=C(O)[C@@H](N(C)C)[C@@H]3[C@@H](O)[C@H]12.O=C(O)c1cc(S(=O)(=O)O)ccc1O",
    "Readout kind": "growth inhibition",
    "Quantity unit": "%",
    "Result number": 4.89
  },
  {
    "Molecule": "CN1[C@@H]2CC[C@H]1CC(OC(=O)c1c[nH]c3ccccc13)C2 (some centres not stated)",
    "Readout kind": "growth inhibition",
    "Quantity unit": "%",
    "Result number": 1.15
  },
  {
    "Molecule": "CN/C(=N\\CCSCc1nc[nH]c1C)NC#N",
    "Readout kind": "growth inhibition",
    "Quantity unit": "%",
    "Result number": 2.38
  },
  {
    "Molecule": "COc1ccc2cc([C@H](C)C(=O)O)ccc2c1",
    "Readout kind": "growth inhibition",
    "Quantity unit": "%",
    "Result number": 0.358
  },
  {
    "Molecule": "CCCCC(CC)CN=C(N)N=C(N)NCCCCCCNC(N)=NC(N)=NCC(CC)CCCC (configuration not stated)",
    "Readout kind": "growth inhibition",
    "Quantity unit": "%",
    "Result number": 60.2
  },
  {
    "Molecule": "O=c1cc[nH]c(=S)[nH]1",
    "Readout kind": "growth inhibition",
    "Quantity unit": "%",
    "Result number": -6.46
  },
  {
    "Molecule": "O=C1c2ccccc2C(=O)C1c1ccccc1",
    "Readout kind": "growth inhibition",
    "Quantity unit": "%",
    "Result number": 0.683
  },
  {
    "Molecule": "CCN(CC)C(=O)/C(C#N)=C/c1cc(O)c(O)c([N+](=O)[O-])c1",
    "Readout kind": "growth inhibition",
    "Quantity unit": "%",
    "Result number": -0.299
  },
  {
    "Molecule": "C[C@]12CCC(=O)C=C1[C@@H]1C[C@@H]1[C@H]1[C@@H]3[C@@H]4C[C@@H]4[C@@]4(CCC(=O)O4)[C@@]3(C)CC[C@@H]12",
    "Readout kind": "growth inhibition",
    "Quantity unit": "%",
    "Result number": 2.83
  },
  {
    "Molecule": "Nc1ncn(C2OC(CO)C(O)C2O)c(=O)n1 (configuration not stated)",
    "Readout kind": "growth inhibition",
    "Quantity unit": "%",
    "Result number": 0.0997
  },
  {
    "Molecule": "COc1ccc(Cl)cc1C(=O)NCCc1ccc(S(=O)(=O)NC(=O)NC2CCCCC2)cc1",
    "Readout kind": "growth inhibition",
    "Quantity unit": "%",
    "Result number": 1.26
  },
  {
    "Molecule": "Cc1cc(NS(=O)(=O)c2ccc(N)cc2)no1",
    "Readout kind": "growth inhibition",
    "Quantity unit": "%",
    "Result number": -3.16
  },
  {
    "Molecule": "CNC(=O)c1cc(Oc2ccc(NC(=O)Nc3ccc(Cl)c(C(F)(F)F)c3)cc2)ccn1",
    "Readout kind": "growth inhibition",
    "Quantity unit": "%",
    "Result number": 60.7
  },
  {
    "Molecule": "CC(C)CC(N)=O",
    "Readout kind": "growth inhibition",
    "Quantity unit": "%",
    "Result number": -0.151
  },
  {
    "Molecule": "CC(C)[C@H](N)C(=O)OCCOCn1cnc2c(=O)nc(N)[nH]c21",
    "Readout kind": "growth inhibition",
    "Quantity unit": "%",
    "Result number": 0.129
  },
  {
    "Molecule": "CCC[C@H](NC(=O)[C@@H]1[C@H]2CCC[C@H]2CN1C(=O)[C@@H](NC(=O)[C@@H](NC(=O)c1cnccn1)C1CCCCC1)C(C)(C)C)C(=O)C(=O)NC1CC1",
    "Readout kind": "growth inhibition",
    "Quantity unit": "%",
    "Result number": 1.78
  },
  {
    "Molecule": "CCCCCCCCCCCCCCCC[N+](C)(C)C",
    "Readout kind": "growth inhibition",
    "Quantity unit": "%",
    "Result number": 57.8
  },
  {
    "Molecule": "NCCCC[C@H](N[C@@H](CCc1ccccc1)C(=O)O)C(=O)N1CCC[C@H]1C(=O)O",
    "Readout kind": "growth inhibition",
    "Quantity unit": "%",
    "Result number": -1.38
  }
]
